Values compiled from patent US8680275B2.

# measured target: human orexin 1 receptor (Homo sapiens (Human), UniProt O43613)
# Sequence (O43613 whole entry): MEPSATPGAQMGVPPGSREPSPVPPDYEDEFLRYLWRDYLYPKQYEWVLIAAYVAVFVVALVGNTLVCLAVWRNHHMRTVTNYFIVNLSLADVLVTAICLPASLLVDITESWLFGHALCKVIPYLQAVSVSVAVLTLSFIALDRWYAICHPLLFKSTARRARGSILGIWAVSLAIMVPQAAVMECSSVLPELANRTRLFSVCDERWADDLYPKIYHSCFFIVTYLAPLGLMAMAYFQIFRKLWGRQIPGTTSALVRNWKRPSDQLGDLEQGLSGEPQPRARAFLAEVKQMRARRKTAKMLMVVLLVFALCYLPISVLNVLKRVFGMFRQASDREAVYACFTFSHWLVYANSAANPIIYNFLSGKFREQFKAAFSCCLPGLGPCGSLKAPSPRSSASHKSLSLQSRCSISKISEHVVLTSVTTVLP
# assay info: Human orexin 1 receptor radioligand binding ([3H]-SB674042 competition)
# test context: CHO cells stably expressing human orexin 1 receptor; [3H]-SB674042 4 nM final; read-out: OR-1 Ki
measurement type: Ki (µM)

Examples with answers:
                                   compound  measurement_type  observed_measurement
0  CN(C)c1nc(N2C[C@@H]3CCN(C(=O)c4ccc(F)cc4-n4nccn4)C[C@@H]32)cc(C(F)(F)F)n1                Ki                 0.077
1  COc1ccc(-n2nccn2)c(C(=O)N2CC[C@H]3CN(c4nc(C)cc(C)n4)[C@H]3C2)c1                Ki                 0.277

A = Cc1cccc(C(=O)N2CC[C@H]3CN(c4cc(N(C)C)ccn4)[C@H]3C2)c1-n1nccn1
B = Cc1cnc(N2C[C@@H]3CCN(C(=O)c4cc(F)ccc4-n4nccn4)C[C@@H]32)cn1
Problem: Given the entries A and B , determine which has the lower reported Ki. # respond with the chosen item's label
B
(B: 3.54 µM, A: 9 µM)

A = Cc1ccc(C)c(S(=O)(=O)N2CCC3CN(c4nccc(-c5ccccc5)n4)C3C2)c1 (stereo not drawn)
B = Cc1cc(C)nc(N2C[C@@H]3CCN(C(=O)c4cc(F)ccc4-n4nccn4)C[C@@H]32)n1
I need your help: which of the pair A , B has higher Ki? # respond with the chosen item's label
B
(B: 0.441 µM, A: 0.254 µM)

a = Cc1cc(C)nc(N2C[C@@H]3CCN(C(=O)c4cc(F)ccc4-c4ncccn4)C[C@@H]32)n1
b = O=C(c1ccccc1-n1nccn1)N1CC2CN(c3nccc(-c4ccccc4)n3)C2C1 (stereo not drawn)
I need your help: which of the pair a , b has higher Ki? # respond with the chosen item's label
a
(a: 0.619 µM, b: 0.225 µM)
